# Test system: K4 kissing-loop RNA reporter;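 further: bound reporter read as fluorescence of individual clusters on recovered sequencing chips by microscopy, with normalized cluster intensities fitted with a binding model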
# assay-method-text: apparent KD of K4 kissing-loop reporter; higher = weaker reporter binding
# conditions-used: Eterna round: R107; input ligand: FMN 200 uM
We'd kindly ask you to apply these apparent KD of K4 kissing-loop reporter classes: bucket 1 = under 100 nM, bucket 2 = from 100 nM up to 200 nM, bucket 3 = 200 nM and over

biosequence	group-label
GGCAGUGAUGUUGCCUUCGCAAUGCAUGCAGAGGAUAUUCGUUUGGGAAGAAGGCUGCAGCGUUCUCUCGAGUGAUGUUCGGGUG [Same State FMN A GF 19]	bucket 2
AGAGAUAAGGCGGCCGCCACUAAGAUGAAACUAACGGUCAAGUGAUGUUUGCGGUUACAGUUCAGUAGGACCGGGCCGAGUAAAU [theeternabot_sameState_KL_Trp_B_47]	bucket 3
UGUGCCAAAUGUGAUACCAGCAUCCUGCAGUGAUGUUGCAUACGAGUGAUGUUCGUCCGAUGCCCUUGGCAGCGCAGUAGUUUGA [Same State Theophylline B GF 26]	bucket 3
GGCUCCUACGCAGGAUAUAGUAGCCGAGAGUGAUGUUCUACGGCGUUUGCCGAUUUAGUCACAGAUCUAGAAGGGUGUAGGAGCC [XFMN-B PiClone]	bucket 3
GGAUAGGACAGAGGAUAUUGGUAGUGAUGUUACCAAAUAAAUAAACAGUCUACAAAGUAGGCUGACCAAGAAGGCUGUCCUAUCG [FmnBX 24 #SwitchBubble #StaticStem #Palindromic]	bucket 3
AAGCGUAAAAUGGCGGACAUACUGCUCCCACGAGGACCGGUACGGCCGCCACUCGAGUGCGGCAGUGAUGUUGCCGCCUUAGCGU [KL-XTryp-A20]	bucket 1
GAGGUGCUGAUGCGGUGGCCGGUGGUCGUGCGAGGACCGGUACGGCCGCCACUCGCAUGAGUGAUGUUCAUGUGUCGUCGUCGUC [whbob_EX_Tryp_A_t3]	bucket 2
AGAGUACGAAAGUACUCCUCUACACACUGUCGAGGACCGGUACGGCCGCCACUCGAGUUGAGUGAUGUUCGAUAGUGUGUAGAGA [Omei KL Tryp A SS C v4]	bucket 1
GCAUCCUAGUCGGCCGCCACUGACAUGAGUGAUGUUCAUGUUCGUCAGUGAUGUUGACGUUGUUACAGGACCGGGACUAGGAUGC [KL-SSTryp-B8 Brourdwalk4 #Double KL]	bucket 2
UUAGAUCUUCUAGAUACCAGUCUGUGUAUCAAUGAUACACUUGACUGAGUGAUGUUCAGAGGCCCUUGGCAGCUAGAAGAUCAUU [AK1 SS Theophylline B]	bucket 3
UAUAUAGUGAUGUUAUAUGGGAAGGAGUUACGAGGACCGGUACGGCCGCCACUCGAAACGAGUGAGGAUUUGGGAGAUUGGGUUU [SSTryptA.S]	bucket 3
GGAUAGGAUAGAGGAUAUGGUAUAUGCAAGAAUAACUUGUCAUGUAAAUCCAUGAGGAGUGAUGUUCCAGAAGGCUGUCCUAUCG [MatMod 10 - Jieux - Exclusion - FMN B]	bucket 3
CGCUGGGCGAGUGAUGUUCGCUCACGUGAUACCAGUGCAAUCCAACACCCUUGGCAGCACGCGGGCAGUGAUGUUGUCCUUAGUG [Exclusion Theophylline A GF12]	bucket 2
UAAAUAAAAUCCUAGUGAUGUUAGGAUAUGUAGGAUAUCGGGAUACCGAGAAGGACAGAAGGAGGAGUGAUGUUCCUCAAUAAAU [FmnAX 30 #DoubleAptamer #DoubleK4 #OpenEnded]	bucket 1
UGAUCUGCAGUGAUGUUGCAGUAGCUGUCAGAGGAUAUCAGACUCAUGAGAAGGCUGACAAUGUCUAACAGCACAAUGCUGUUCA [FMN A SS t6]	bucket 2
AGCCACGACGCGGCCGCCACUGCCAUUAAACGUAAGGCAAAUCUAAUCUUCGAGUGAUGUUCGGGCAGGACCGGGCGGAGACUUG [theeternabot_sameState_KL_Trp_B_18]	bucket 3
AGACUUCACCGAAGGAGCGACGUGGUCUAGUGAUGUUAGACACGAGAGAAAUCUCGUAUACGUCAGGUAGGUCGCGGUGAAGUCA [Omei KL Arginine B SS C v9]	bucket 2
CGUUUCUCUGUCGAUACCAGCUUCAGUUGGCGGCCAGUGAUGUUGGUAUCGCCGAUGCCAAGCCCUUGGCAGCGACAUGAGACCC [Gezausin]	bucket 2
